For each record, write down the corresponding Emax.
target: GAL4-PPARγ chimeric receptor (Homo sapiens); construct: containing amino acids 175 to 475 of human PPARγ and a stop codon at the carboxy end; expressed in transfected cells; host or cells: COS-7 (monkey kidney) cells, transfected with pM-PPARγ and pFR-Luc; assay: Measurement of PPARγ activation effect/modulator activity, GAL4-PPARγ reporter assay in COS-7 cells (Test Example 5); format: cell-based; settings: COS-7; maximum luciferase activity; positive control (Rosiglitazone) 100%, control 0%; read-out: Emax (%)

Would you please give the reported Emax of Cl.Cn1c(COc2cccc(C(=O)O)c2)nc2ccc(Oc3ccc(Cl)c(F)c3)cc21 [Example 10, hydrochloride] with GAL4-PPARγ chimeric receptor (Homo sapiens)?
46.5%

Would you please give the reported Emax of Cl.Cn1c(COc2cccc(C(=O)O)c2)nc2ccc(Oc3cccc(F)c3)cc21 [Example 8, hydrochloride] with GAL4-PPARγ chimeric receptor (Homo sapiens)?
91%

Would you please give the reported Emax of Cl.Cl.Cn1c(COc2cccc(C(=O)O)c2)nc2ccc(Oc3ccccc3)nc21 [Example 16, dihydrochloride] with GAL4-PPARγ chimeric receptor (Homo sapiens)?
60.9%

Would you please give the reported Emax of Cl.Cn1c(COc2cccc(C(=O)O)c2)nc2ccc(Oc3ccc(F)c(Cl)c3)cc21 [Example 12, hydrochloride] with GAL4-PPARγ chimeric receptor (Homo sapiens)?
60.2%

Would you please give the reported Emax of Cc1cc(Oc2ccc3nc(COc4cccc(C(=O)O)c4)n(C)c3c2)cc(C)c1N.Cl.Cl [Example 2, dihydrochloride] with GAL4-PPARγ chimeric receptor (Homo sapiens)?
73.3%

----------
Biological target: human PPARγ2 (Homo sapiens, UniProt P37231)
Construct: expressed in transfected cells; host or cells: human osteosarcoma cell line MG63, transiently transfected with pSG5-hPPARγ and pGV-P2-PPRE
Sequence (P37231 whole entry): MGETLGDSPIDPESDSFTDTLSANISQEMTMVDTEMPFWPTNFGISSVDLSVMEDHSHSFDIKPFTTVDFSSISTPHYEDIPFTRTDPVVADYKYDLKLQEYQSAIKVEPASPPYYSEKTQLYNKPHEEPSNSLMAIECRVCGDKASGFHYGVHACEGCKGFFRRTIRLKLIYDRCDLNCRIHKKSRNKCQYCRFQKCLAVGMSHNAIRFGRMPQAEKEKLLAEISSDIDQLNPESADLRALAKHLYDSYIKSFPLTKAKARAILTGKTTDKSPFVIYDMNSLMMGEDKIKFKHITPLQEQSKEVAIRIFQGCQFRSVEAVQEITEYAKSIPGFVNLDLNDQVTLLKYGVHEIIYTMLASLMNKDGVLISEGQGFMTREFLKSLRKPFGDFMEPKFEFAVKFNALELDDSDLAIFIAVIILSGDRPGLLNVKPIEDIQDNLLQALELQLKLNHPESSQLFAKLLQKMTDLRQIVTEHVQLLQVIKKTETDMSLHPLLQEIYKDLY
Assay: Evaluation of PPARγ modulator activity, PPRE luciferase reporter in MG63 cells (Test Example 2)
Assay type: cell-based
Settings: maximum inhibition of luciferase activity in the presence of Compound A
Method: In FIG. 3, the luciferase activity of the positive control group is defined as 100% and the luciferase activity of the control group is defined as 0%. […] The cells prepared in Procedures 6 and 7 were cultured for 24 hours and then the medium was removed. […] The luciferase activity was measured using Analyst (Molecular Devices) and a dose-dependent curve was drawn. The IC50, Imax, EC50 and Emax of the test compound to be determined are defined as follows. […]
For each record, write down the corresponding Imax (%).
Report as a plain number; the unit % is understood.

Would you please give the reported Imax (%) of `Cl.Cn1c(COc2cccc(C(=O)O)c2)nc2ccc(Oc3cccc(F)c3)cc21` with human PPARγ2 (Homo sapiens, UniProt P37231)?
−34

Would you please give the reported Imax (%) of `Cl.Cl.Cn1c(COc2cccc(C(=O)O)c2)nc2ccc(Oc3ccccc3)nc21` with human PPARγ2 (Homo sapiens, UniProt P37231)?
−44

Would you please give the reported Imax (%) of `Cl.Cn1c(COc2cccc(C(=O)O)c2)nc2ccc(Oc3ccc(F)c(Cl)c3)cc21` with human PPARγ2 (Homo sapiens, UniProt P37231)?
−43

Would you please give the reported Imax (%) of `Cl.Cn1c(COc2cccc(C(=O)O)c2)nc2ccc(Oc3ccccc3)cc21` with human PPARγ2 (Homo sapiens, UniProt P37231)?
−35

Would you please give the reported Imax (%) of `Cl.Cn1c(COc2cccc(C(=O)O)c2)nc2ccc(Oc3ccc(Cl)c(F)c3)cc21` with human PPARγ2 (Homo sapiens, UniProt P37231)?
−50

Would you please give the reported Imax (%) of `Cc1cc(Oc2ccc3nc(COc4cccc(C(=O)O)c4)n(C)c3c2)cc(C)c1N.Cl.Cl` with human PPARγ2 (Homo sapiens, UniProt P37231)?
−44

----------
molecular target: human PPARγ2 (Homo sapiens); construct: expressed in transfected cells; host or cells: human osteosarcoma cell line MG63, transiently transfected with pSG5-hPPARγ and pGV-P2-PPRE; test: Evaluation of PPARγ modulator activity, PPRE luciferase reporter in MG63 cells (Test Example 2); assay type: cell-based; conditions: test compound alone; concentration representing Emax/2; MG63 cells, luciferase activity; read-out: EC50
The threshold is 3 nM. Values of EC50 beneath it are tagged 1.0; values meeting or exceeding it are tagged 0.0.

Given Cl.Cl.Cn1c(COc2cccc(C(=O)O)c2)nc2ccc(Oc3ccccc3)nc21 [Example 16, dihydrochloride] , is recorded EC50 strictly lower than 3 nM?
0.0

Given Cl.Cn1c(COc2cccc(C(=O)O)c2)nc2ccc(Oc3cccc(F)c3)cc21 [Example 8, hydrochloride] , is recorded EC50 strictly lower than 3 nM?
0.0

Given Cl.Cn1c(COc2cccc(C(=O)O)c2)nc2ccc(Oc3ccc(F)c(Cl)c3)cc21 [Example 12, hydrochloride] , is recorded EC50 strictly lower than 3 nM?
1.0

Given Cl.Cn1c(COc2cccc(C(=O)O)c2)nc2ccc(Oc3ccc(Cl)c(F)c3)cc21 [Example 10, hydrochloride] , is recorded EC50 strictly lower than 3 nM?
1.0

Given Cc1cc(Oc2ccc3nc(COc4cccc(C(=O)O)c4)n(C)c3c2)cc(C)c1N.Cl.Cl [Example 2, dihydrochloride] , is recorded EC50 strictly lower than 3 nM?
0.0

----------
target: GAL4-PPARγ chimeric receptor (Homo sapiens); construct: containing amino acids 175 to 475 of human PPARγ and a stop codon at the carboxy end; expressed in transfected cells; host or cells: COS-7 (monkey kidney) cells, transfected with pM-PPARγ and pFR-Luc; assay: Measurement of PPARγ activation effect/modulator activity, GAL4-PPARγ reporter assay in COS-7 cells (Test Example 5); type: cell-based
reported-property: pEC50
// scale note: pEC50 = -log10(conc_M); give the bare number

Give pEC50 for the following compound: Cl.Cn1c(COc2cccc(C(=O)O)c2)nc2ccc(Oc3ccccc3)cc21 [Example 14, hydrochloride]
6.07

----------
biological target: GAL4-PPARγ chimeric receptor (Homo sapiens, UniProt P37231); construct: containing amino acids 175 to 475 of human PPARγ and a stop codon at the carboxy end; expressed in transfected cells; host or cells: COS-7 (monkey kidney) cells, transfected with pM-PPARγ and pFR-Luc; experiment: Measurement of PPARγ activation effect/modulator activity, GAL4-PPARγ reporter assay in COS-7 cells (Test Example 5); format: cell-based; details: COS-7 cells with pM-PPARγ and pFR-Luc; concentration represented by Emax/2; read-out: EC50
Sequence (P37231 with tags, fused parts or gaps): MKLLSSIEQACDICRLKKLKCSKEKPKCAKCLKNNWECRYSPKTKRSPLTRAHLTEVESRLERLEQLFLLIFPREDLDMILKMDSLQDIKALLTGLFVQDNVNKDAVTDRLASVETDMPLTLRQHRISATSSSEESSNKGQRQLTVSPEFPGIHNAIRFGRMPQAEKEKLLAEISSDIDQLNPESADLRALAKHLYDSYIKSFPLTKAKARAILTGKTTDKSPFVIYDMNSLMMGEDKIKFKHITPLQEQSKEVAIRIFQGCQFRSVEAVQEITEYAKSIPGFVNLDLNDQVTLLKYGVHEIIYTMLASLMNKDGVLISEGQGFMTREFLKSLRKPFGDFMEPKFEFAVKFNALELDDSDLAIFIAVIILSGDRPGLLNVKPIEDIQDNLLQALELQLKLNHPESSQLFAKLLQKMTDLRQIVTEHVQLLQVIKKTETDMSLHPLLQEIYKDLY
The threshold is 300000 pM. Values of EC50 beneath it are tagged 1 (yes); values meeting or exceeding it are tagged 0 (no).

Given Cl.Cn1c(COc2cccc(C(=O)O)c2)nc2ccc(Oc3ccc(Cl)c(F)c3)cc21 [Example 10, hydrochloride] , is recorded EC50 strictly lower than 300000 pM?
1 (yes)

Given Cl.Cn1c(COc2cccc(C(=O)O)c2)nc2ccc(Oc3ccc(F)c(Cl)c3)cc21 [Example 12, hydrochloride] , is recorded EC50 strictly lower than 300000 pM?
1 (yes)

Given Cl.Cn1c(COc2cccc(C(=O)O)c2)nc2ccc(Oc3cccc(F)c3)cc21 [Example 8, hydrochloride] , is recorded EC50 strictly lower than 300000 pM?
0 (no)

Given Cl.Cl.Cn1c(COc2cccc(C(=O)O)c2)nc2ccc(Oc3ccccc3)nc21 [Example 16, dihydrochloride] , is recorded EC50 strictly lower than 300000 pM?
0 (no)

----------
For each record, write down the corresponding Emax.
target: human PPARγ2 (Homo sapiens, UniProt P37231); construct: expressed in transfected cells; host or cells: human osteosarcoma cell line MG63, transiently transfected with pSG5-hPPARγ and pGV-P2-PPRE; assay: Evaluation of PPARγ modulator activity, PPRE luciferase reporter in MG63 cells (Test Example 2); type: cell-based; conditions: MG-63; maximum luciferase activity by test compound alone; positive control (Compound A) 100%, control 0%; read-out: Emax (%)
Report as a plain number; the unit % is understood.

Would you please give the reported Emax of Cc1cc(Oc2ccc3nc(COc4cccc(C(=O)O)c4)n(C)c3c2)cc(C)c1N.Cl.Cl [Example 2, dihydrochloride] with human PPARγ2 (Homo sapiens, UniProt P37231)?
70

Would you please give the reported Emax of Cl.Cn1c(COc2cccc(C(=O)O)c2)nc2ccc(Oc3cccc(F)c3)cc21 [Example 8, hydrochloride] with human PPARγ2 (Homo sapiens, UniProt P37231)?
39

Would you please give the reported Emax of Cl.Cl.Cn1c(COc2cccc(C(=O)O)c2)nc2ccc(Oc3ccccc3)nc21 [Example 16, dihydrochloride] with human PPARγ2 (Homo sapiens, UniProt P37231)?
46

Would you please give the reported Emax of Cl.Cn1c(COc2cccc(C(=O)O)c2)nc2ccc(Oc3ccc(Cl)c(F)c3)cc21 [Example 10, hydrochloride] with human PPARγ2 (Homo sapiens, UniProt P37231)?
42

Would you please give the reported Emax of Cl.Cn1c(COc2cccc(C(=O)O)c2)nc2ccc(Oc3ccc(F)c(Cl)c3)cc21 [Example 12, hydrochloride] with human PPARγ2 (Homo sapiens, UniProt P37231)?
42

Sourced from patent US20100048564A1
